Values from patent US10597388B2

- Test system: corn (Zea mays)
- TEST_NAME: Test E greenhouse herbicide test, pre- and postemergence
- Type: in vivo
- RECORDED_CONDITIONS: 125 g ai/ha, Postemergence; scale 0 to 100 (0 no effect, 100 complete control)
READOUT_NAME: Plant response rating, Corn

>>> experimental_value("CCc1sc2ccc(C)cc2c1-c1c(O)c(C)nn(C)c1=O [Compound 47]")
5
>>> experimental_value("Cc1nn(C)c(=O)c(-c2cccc3ccc(Br)cc23)c1O [Compound 126]")
5
>>> experimental_value("CCCC(=O)Oc1c(C)nn(C)c(=O)c1-c1c(C)sc2ccc(C)cc12 [Compound 105]")
20
>>> experimental_value("Cn1nc(Br)c(O)c(-c2cccc3ccccc23)c1=O [Compound 20]")
0
>>> experimental_value("Cc1ccc2ccccc2c1-c1c(OC(=O)OC(C)C)c(C)nn(C)c1=O [Compound 72]")
20
>>> experimental_value("CCc1sc2c(C)cc(C)cc2c1-c1c(O)c(C)nn(C)c1=O [Compound 57]")
15
>>> experimental_value("Cc1cc2ccccc2c(-c2c(O)c(C)nn(C)c2=O)c1C [Compound 34]")
0

====

- Test system: ryegrass, Italian (Italian ryegrass, Lolium multiflorum)
- TEST_NAME: Test D controlled growth environment herbicide test, pre- and postemergence
- Assay type: in vivo
- RECORDED_CONDITIONS: Postemergence, 31 g ai/ha; scale 0 to 100 (0 no effect, 100 complete control)
Each entry below carries its reported Ryegrass, Italian plant response rating.
READOUT_NAME: Ryegrass, Italian plant response rating

>>> experimental_value("CC(=O)Oc1c(C)nn(C)c(=O)c1-c1c(C)sc2ccc(Cl)cc12 [Compound 108]")
90
>>> experimental_value("Cc1cc(C)c2ccccc2c1-c1c(O)c(C)nn(C)c1=O [Compound 21]")
80
>>> experimental_value("Cc1ccc2sc(C)c(-c3c(OC(=O)OC(C)C)c(C)nn(C)c3=O)c2c1 [Compound 66]")
85
>>> experimental_value("Cc1nn(C)c(=O)c(-c2ccc(Br)c3ccccc23)c1O [Compound 75]")
90
>>> experimental_value("Cn1nc(Br)c(O)c(-c2cccc3ccccc23)c1=O [Compound 20]")
55
>>> experimental_value("Cc1cc(C)c2sc(C)c(-c3c(O)c(C)nn(C)c3=O)c2c1 [Compound 2]")
70

====

- System: barnyardgrass (Echinochloa crus-galli)
- TEST_NAME: Test E greenhouse herbicide test, pre- and postemergence
- Assay type: in vivo
- RECORDED_CONDITIONS: Postemergence, 31 g ai/ha; visual, scale 0 no effect to 100 complete control
This section presents compounds with their documented Plant response rating, Barnyardgrass values.
READOUT_NAME: Plant response rating, Barnyardgrass

>>> experimental_value("Cc1cc(C)c2sc(C)c(-c3c(O)c(C)nn(C)c3=O)c2c1 [Compound 2]")
20
>>> experimental_value("Cc1nn(C)c(=O)c(-c2ccc(Br)c3ccccc23)c1O [Compound 75]")
20
>>> experimental_value("Cc1ccc2sc(Br)c(-c3c(O)c(C)nn(C)c3=O)c2c1 [Compound 79]")
15
>>> experimental_value("Cc1ccc2sc(C)c(-c3c(OC(=O)OC(C)C)c(C)nn(C)c3=O)c2c1 [Compound 66]")
15

====

A collection of compounds and their measured Plant response rating, Corn
- Tested on: corn (Zea mays)
- TEST_NAME: Test E greenhouse herbicide test, pre- and postemergence
- Type: in vivo
- RECORDED_CONDITIONS: Postemergence, 31 g ai/ha; visual, scale 0 no effect to 100 complete control
READOUT_NAME: Plant response rating, Corn

>>> experimental_value("CCc1sc2c(C)cc(C)cc2c1-c1c(O)c(C)nn(C)c1=O [Compound 57]")
15
>>> experimental_value("CCCC(=O)Oc1c(C)nn(C)c(=O)c1-c1c(C)sc2ccc(C)cc12 [Compound 105]")
5
>>> experimental_value("Cc1ccc2sc(Br)c(-c3c(O)c(C)nn(C)c3=O)c2c1 [Compound 79]")
0
>>> experimental_value("CC(=O)Oc1c(C)nn(C)c(=O)c1-c1c(C)cc(C)c2ccccc12 [Compound 99]")
0
>>> experimental_value("Cc1ccc2ccccc2c1-c1c(OC(=O)OC(C)C)c(C)nn(C)c1=O [Compound 72]")
0

====

- System: kochia (Kochia scoparia)
- TEST_NAME: Test A greenhouse herbicide test, pre- and postemergence
- Format: in vivo
- RECORDED_CONDITIONS: Postemergence, 125 g ai/ha; 0 to 100 scale where 0 is no effect and 100 is complete control
READOUT_NAME: Plant response rating, Kochia

>>> experimental_value("COC(=O)Oc1c(C)nn(C)c(=O)c1-c1ccc(F)c2ccccc12 [Compound 130]")
100
>>> experimental_value("CCC(=O)Oc1c(C)nn(C)c(=O)c1-c1ccc(Cl)c2ccccc12 [Compound 62]")
100
>>> experimental_value("Cc1ccc2ccccc2c1-c1c(O)c(C(F)(F)F)nn(C)c1=O [Compound 102]")
20
>>> experimental_value("Cc1nn(C)c(=O)c(-c2cccc3ccc(C4CC4)cc23)c1O [Compound 71]")
50
>>> experimental_value("CCOc1ccc2cccc(-c3c(O)c(C)nn(C)c3=O)c2c1 [Compound 92]")
60

====

- System: field violet (Viola arvensis)
- TEST_NAME: Test D controlled growth environment herbicide test, pre- and postemergence
- Assay type: in vivo
- RECORDED_CONDITIONS: Postemergence, 250 g ai/ha; scale 0 to 100 (0 no effect, 100 complete control)
READOUT_NAME: Plant response rating, Field Violet

>>> experimental_value("Cc1ccc2ccccc2c1-c1c(O)c(Br)nn(C)c1=O")
75
>>> experimental_value("Cc1ccc2sc(C)c(-c3c(OC(=O)OC(C)C)c(C)nn(C)c3=O)c2c1")
95
>>> experimental_value("Cc1nn(C)c(=O)c(-c2c(C)sc3c(C)cc(Cl)cc23)c1O")
98
>>> experimental_value("CC(=O)Oc1c(C)nn(C)c(=O)c1-c1c(C)sc2ccc(Cl)cc12")
100
>>> experimental_value("CCCC(=O)Oc1c(C)nn(C)c(=O)c1-c1c(C)sc2ccc(C)cc12")
100

====

- Test system: waterhemp (common waterhemp, Amaranthus rudis)
- TEST_NAME: Test E greenhouse herbicide test, pre- and postemergence
- Assay type: in vivo
- RECORDED_CONDITIONS: Preemergence, 31 g ai/ha; scale 0 to 100, 0 no effect, 100 complete control
- From the text: […]
READOUT_NAME: Plant response rating, Waterhemp

>>> experimental_value("Cn1nc(Br)c(O)c(-c2cccc3ccccc23)c1=O")
0
>>> experimental_value("Cc1ccc2sc(C)c(-c3c(OC(=O)OC(C)C)c(C)nn(C)c3=O)c2c1")
65
>>> experimental_value("CCCC(=O)Oc1c(C)nn(C)c(=O)c1-c1c(C)sc2ccc(C)cc12")
80
>>> experimental_value("Cc1cc(C)c2ccccc2c1-c1c(O)c(C)nn(C)c1=O")
95
>>> experimental_value("Cc1ccc2ccccc2c1-c1c(O)c(I)nn(C)c1=O")
80

====

- Tested on: corn (Zea mays)
- TEST_NAME: Test C greenhouse herbicide test, pre- and postemergence
- Assay type: in vivo
- RECORDED_CONDITIONS: Postemergence, 125 g ai/ha; scale 0 to 100, 0 is no effect, 100 is complete control
Catalogue of molecules with associated Plant response rating, Corn
READOUT_NAME: Plant response rating, Corn

>>> experimental_value("CCCC(=O)Oc1c(C)nn(C)c(=O)c1-c1c(CC)sc2ccc(C)cc12")
20
>>> experimental_value("CCc1ccc2ccccc2c1-c1c(O)c(C)nn(C)c1=O")
30
>>> experimental_value("Cc1ccc2ccccc2c1-c1c(O)c(I)nn(C)c1=O")
30
>>> experimental_value("CCc1sc2c(C)cc(C)cc2c1-c1c(O)c(C)nn(C)c1=O")
5
>>> experimental_value("Cc1ccc2ccccc2c1-c1c(OC(=O)OC(C)C)c(C)nn(C)c1=O")
20

====

- System: corn (Zea mays)
- TEST_NAME: Test A greenhouse herbicide test, pre- and postemergence
- Type: in vivo
- RECORDED_CONDITIONS: Postemergence, 500 g ai/ha; 0 to 100 scale, 0 is no effect, 100 is complete control
READOUT_NAME: Corn plant response rating

>>> experimental_value("Cc1nn(C)c(=O)c(-c2c(Cl)n(C)c3ccccc23)c1O")
0
>>> experimental_value("CCOc1ccc2cccc(-c3c(O)c(C)nn(C)c3=O)c2c1")
0
>>> experimental_value("Cn1nc(Br)c(O)c(-c2cccc3ccccc23)c1=O")
30
>>> experimental_value("Cc1nn(C)c(=O)c(-c2cccc3ccc(C4CC4)cc23)c1O")
20
>>> experimental_value("COC(=O)Oc1c(C)nn(C)c(=O)c1-c1c(C)sc2ccc(C)cc12")
0
>>> experimental_value("Cc1nn(C)c(=O)c(-c2ccc(F)c3ccccc23)c1O")
70
